- CONDITIONS USED: in ethylene glycol, 313.15 K
MEASURED QUANTITY: solubility (mole fraction)
Respond with the number and no other words.

So what does the record say about solubility (mole fraction) for O=C(O)c1cc([N+](=O)[O-])cc([N+](=O)[O-])c1O ? 0.062

---

- CONDITIONS USED: in water, 303.15 K
MEASURED QUANTITY: solubility (mole fraction)
Respond with the number and no other words.

So what does the record say about solubility (mole fraction) for O=C(O)c1cc([N+](=O)[O-])cc([N+](=O)[O-])c1O ? 0.00171

---

- CONDITIONS USED: in DMSO, 293.15 K
MEASURED QUANTITY: solubility (mole fraction)

So what does the record say about solubility (mole fraction) for O=C(O)c1cc([N+](=O)[O-])cc([N+](=O)[O-])c1O ? 0.0749
